- TESTED_SYSTEM: T1, human Y2 receptor (human, UniProt P49146 1-381)
- T1 sequence (looked up): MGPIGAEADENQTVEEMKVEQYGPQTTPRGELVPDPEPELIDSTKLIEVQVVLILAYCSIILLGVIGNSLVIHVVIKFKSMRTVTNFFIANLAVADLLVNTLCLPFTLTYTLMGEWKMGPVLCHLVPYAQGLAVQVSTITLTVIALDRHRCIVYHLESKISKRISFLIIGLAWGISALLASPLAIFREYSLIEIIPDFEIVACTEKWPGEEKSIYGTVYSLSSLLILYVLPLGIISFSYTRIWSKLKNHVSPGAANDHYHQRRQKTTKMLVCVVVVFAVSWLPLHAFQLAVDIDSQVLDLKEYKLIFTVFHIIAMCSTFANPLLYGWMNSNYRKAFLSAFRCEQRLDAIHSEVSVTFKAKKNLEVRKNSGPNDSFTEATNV
- METHOD_SUMMARY: cell-based or functional assay
Non-standard residues stand in square brackets, D forms with d. No end group written: not given here. 1Nal = N[C@@H](Cc1cccc2ccccc12)C(=O)O; 4Pal = N[C@@H](Cc1ccncc1)C(=O)O; 4Amb = NCc1ccc(C(=O)O)cc1
QUANTITY: GBA EC50 Ratio (vs PYY(3-36)), [35S]GTPγS (ratio)
Numbers only, in ratio.

BINDER	MEASURED_NUMBER
[4Amb]RA[4Pal]INLITRQRY-NH2 (N-terminus assumed; SMILES CC[C@H](C)[C@H](NC(=O)[C@H](Cc1ccncc1)NC(=O)[C@H](C)NC(=O)[C@H](CCCNC(=N)N)NC(=O)c1ccc(CN)cc1)C(=O)N[C@@H](CC(N)=O)C(=O)N[C@@H](CC(C)C)C(=O)N[C@H](C(=O)N[C@H](C(=O)N[C@@H](CCCNC(=N)N)C(=O)N[C@@H](CCC(N)=O)C(=O)N[C@@H](CCCNC(=N)N)C(=O)N[C@@H](Cc1ccc(O)cc1)C(N)=O)[C@@H](C)O)[C@@H](C)CC, also called compound No. 44) [4-Aminomethylbenzoyl-[Ala26, Pya(4)27, Ile28,31]-PYY(25-36)]	2.6

Then this binder:
Req: Which GBA EC50 Ratio (vs PYY(3-36)), [35S]GTPγS is listed for [4Amb]RAYIN[1Nal]ITRQRY-NH2 (N-terminus assumed; SMILES CC[C@H](C)[C@H](NC(=O)[C@H](Cc1ccc(O)cc1)NC(=O)[C@H](C)NC(=O)[C@H](CCCNC(=N)N)NC(=O)c1ccc(CN)cc1)C(=O)N[C@@H](CC(N)=O)C(=O)N[C@@H](Cc1cccc2ccccc12)C(=O)N[C@H](C(=O)N[C@H](C(=O)N[C@@H](CCCNC(=N)N)C(=O)N[C@@H](CCC(N)=O)C(=O)N[C@@H](CCCNC(=N)N)C(=O)N[C@@H](Cc1ccc(O)cc1)C(N)=O)[C@@H](C)O)[C@@H](C)CC, also called compound No. 55) [4-Aminomethylbenzoyl-[Ala26, Ile28,31, Nal(1)30]-PYY(25-36)] ?
Resp: 3
